targetEntity: recombinant cynomolgus monkey CD3ε/δ heterodimer (cynomolgus monkey) (UniProt Q95LI5)
Sequence (Q95LI5 22-117, stated change not applied, chain 1 of 2): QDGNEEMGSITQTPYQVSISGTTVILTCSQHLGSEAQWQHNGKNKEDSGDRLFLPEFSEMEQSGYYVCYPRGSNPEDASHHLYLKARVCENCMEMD
Sequence (Q95LI8 22-105, stated change not applied, chain 2 of 2, further chain): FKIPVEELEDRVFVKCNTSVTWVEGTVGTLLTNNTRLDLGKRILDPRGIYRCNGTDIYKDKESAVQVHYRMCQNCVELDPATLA
methodNotes: BLI (Octet), antigen on anti-Penta His sensor, antibody 50 nM
Assignment: determine reported pKd for the given binders.
Note on units: pKd is unitless, being -log10 of a concentration expressed in mol/L.

Kindly note the recorded pKd for B08 (antibody, human IgG1, lambda, L234A L235A, V domains shown) VH: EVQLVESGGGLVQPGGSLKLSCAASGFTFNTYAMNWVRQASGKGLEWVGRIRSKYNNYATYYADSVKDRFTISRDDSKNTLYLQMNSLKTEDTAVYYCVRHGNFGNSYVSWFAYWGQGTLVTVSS VL: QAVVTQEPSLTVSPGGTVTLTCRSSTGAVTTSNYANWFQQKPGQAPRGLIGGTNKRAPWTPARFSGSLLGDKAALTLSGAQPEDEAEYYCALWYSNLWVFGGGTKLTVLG , which is 7.58

# pKd (binder: A08 (antibody, human IgG1, lambda, L234A L235A, V domains shown) VH: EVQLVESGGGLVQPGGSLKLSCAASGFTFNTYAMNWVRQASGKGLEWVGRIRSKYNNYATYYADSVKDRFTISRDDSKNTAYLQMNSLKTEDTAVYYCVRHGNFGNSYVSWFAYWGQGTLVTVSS VL: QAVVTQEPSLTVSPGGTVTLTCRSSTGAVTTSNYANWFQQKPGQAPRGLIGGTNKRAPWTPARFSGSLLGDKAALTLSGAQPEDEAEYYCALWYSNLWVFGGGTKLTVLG ) is 7.66

Lab book: pKd of B07 (antibody, human IgG1, lambda, L234A L235A, V domains shown) VH: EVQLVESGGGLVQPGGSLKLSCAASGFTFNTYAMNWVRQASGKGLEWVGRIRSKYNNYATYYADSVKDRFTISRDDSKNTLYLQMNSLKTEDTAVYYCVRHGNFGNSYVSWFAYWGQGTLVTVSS VL: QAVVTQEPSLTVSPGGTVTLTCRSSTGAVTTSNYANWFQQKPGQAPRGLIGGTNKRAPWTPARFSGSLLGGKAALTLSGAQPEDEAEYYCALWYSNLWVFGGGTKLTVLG noted as 7.51
